Test: Concentration in water to achieve pH=7
Format: physicochemical

compound	Concentration in water to achieve pH=7
CCN(C(=O)c1cc(F)ccc1Oc1cncnc1N1CC2(CCN(CC3CCC(NS(=O)(=O)CC)CC3)CC2)C1)C(C)C.CS(=O)(=O)O.CS(=O)(=O)O (stereo not shown)	261 mg/mL
CCN(C(=O)c1cc(F)ccc1Oc1cncnc1N1CC2(CCN(CC3CCC(NS(=O)(=O)CC)CC3)CC2)C1)C(C)C.Cl.Cl (stereo not shown)	317.6 mg/mL
CCN(C(=O)c1cc(F)ccc1Oc1cncnc1N1CC2(CCN(CC3CCC(NS(=O)(=O)CC)CC3)CC2)C1)C(C)C.CCN(C(=O)c1cc(F)ccc1Oc1cncnc1N1CC2(CCN(CC3CCC(NS(=O)(=O)CC)CC3)CC2)C1)C(C)C.O=C(O)/C=C/C(=O)O.O=C(O)/C=C/C(=O)O.O=C(O)/C=C/C(=O)O (stereo not shown)	224.7 mg/mL
CCN(C(=O)c1cc(F)ccc1Oc1cncnc1N1CC2(CCN(CC3CCC(NS(=O)(=O)CC)CC3)CC2)C1)C(C)C (stereo not shown)	7.6 mg/mL

###

Target: biotinylated wild-type menin and MLL-AF9 fusion protein (menin/MLL binding) (Homo sapiens, UniProt O00255)
Construct: MLL-AF9-FLAG: HEK293 cells, used as cleared lysate
Sequence (O00255 1-610): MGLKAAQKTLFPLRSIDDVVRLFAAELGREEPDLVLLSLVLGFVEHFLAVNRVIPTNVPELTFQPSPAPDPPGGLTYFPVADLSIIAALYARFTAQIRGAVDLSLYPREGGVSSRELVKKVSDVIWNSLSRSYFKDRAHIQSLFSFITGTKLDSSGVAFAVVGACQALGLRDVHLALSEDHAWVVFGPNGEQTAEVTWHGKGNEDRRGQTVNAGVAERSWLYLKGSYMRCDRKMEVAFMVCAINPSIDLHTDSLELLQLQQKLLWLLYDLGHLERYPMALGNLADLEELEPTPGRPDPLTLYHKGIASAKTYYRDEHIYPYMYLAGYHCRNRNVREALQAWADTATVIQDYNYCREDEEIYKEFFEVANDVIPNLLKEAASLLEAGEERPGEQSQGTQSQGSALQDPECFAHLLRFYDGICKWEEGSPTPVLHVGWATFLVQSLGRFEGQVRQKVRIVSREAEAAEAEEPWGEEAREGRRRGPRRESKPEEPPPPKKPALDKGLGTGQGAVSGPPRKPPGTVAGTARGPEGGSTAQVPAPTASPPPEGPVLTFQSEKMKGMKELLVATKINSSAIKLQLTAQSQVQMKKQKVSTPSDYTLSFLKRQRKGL
Test: Assay 1: menin/MLL binding AlphaLISA assay, wild-type menin
Settings: Table 30; column head does not say wild-type or mutated menin
pIC50: −log10 of the molar value.
parameter_measured: pIC50

compound	result
CC(=O)NC(c1cc(F)ccc1Oc1cncnc1N1CCC2(CCN(Cc3ccc4[nH]c(=O)[nH]c4c3)C2)C1)C1CCCC1 (stereo not drawn) [Example 9]	> 7.00
CC(C)N(C)C(=O)c1cc(F)ccc1Oc1cncnc1N1CC2(CN(CC[C@H]3CC[C@H](NC(=O)OC(C)(C)C)CC3)C2)C1 [Example 134]	> 7.00
CC(O)c1ccccc1-c1cc(F)ccc1Oc1cncnc1N1CCC2(CCN(Cc3ccc4[nH]c(=O)[nH]c4c3)C2)C1 (stereo not drawn) [Example 60]	> 7.00
CC(C)C(=O)N(CC(F)(F)F)c1cc(F)ccc1Oc1cncnc1N1CCC2(CCN(Cc3ccc4[nH]c(=O)[nH]c4c3)C2)C1 (stereo not drawn) [Example 187]	> 7.00
CCN(C(=O)c1cc(F)ccc1Oc1cncnc1N1CCC2(CCN(Cc3ccc4c(c3)[nH]c(=O)n4C)C2)C1)C(C)C (stereo not drawn) [Example 107]	> 7.00
CC(C)c1ccccc1-c1cc(F)ccc1Oc1cncnc1N1CCC2(CCN(Cc3ccc4[nH]c(=O)[nH]c4c3)C2)C1 (single isomer, unassigned) [Example 41B]	> 7.00
